Data provenance: paper PMC4730607

molecular target: DUX4 DNA-binding domain (DUX4-HD, both homeodomains) (UniProt Q9UBX2 19-152); test: competition; vs FAM-CT; Direct EMSA: 10 uL 100 uM probe + 20 uL 250 uM protein (protein stock in 500 mM NaCl, 20 mM Tris-Cl pH 7.4), 1 h on ice, 3% agarose, EtBr; competition: 10 uL 100 uM competitor, 2 uL 125 uM protein (50% glycerol, 250 mM NaCl, 10 mM Tris-Cl pH 7.4), 2 uL 100 uM FAM-CT, 30 uL total, 1 h on ice; settings: protein: recombinant; tags: N-terminal His6 removed by TEV (first construct); His-SUMO fusion (later construct); blunt
Sequence (Q9UBX2 19-152): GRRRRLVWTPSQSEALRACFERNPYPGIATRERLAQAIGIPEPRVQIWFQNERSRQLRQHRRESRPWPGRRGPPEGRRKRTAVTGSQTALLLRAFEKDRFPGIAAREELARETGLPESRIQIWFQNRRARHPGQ
valueKind: binding result

{"columns": ["binder", "valueKind", "result"],
 "data": [
  ["DUX4(TT) (dsDNA) DNA 1: GGCAGTCTAATTTAATCAAGTCGGC DNA 2: GCCGACTTGATTAAATTAGACTGCC", "binding result", "binds"],
  ["DUX4(CC) (dsDNA) DNA 1: GGCAGTCTAATCCAATCAAGTCGGC DNA 2: GCCGACTTGATTGGATTAGACTGCC", "binding result", "binds"],
  ["DUX4(TC) (dsDNA) DNA 1: GGCAGTCTAATTCAATCAAGTCGGC DNA 2: GCCGACTTGATTGAATTAGACTGCC", "binding result", "binds"]
]}
